- System: SK-MEL-2 melanoma
- Test Description: NCI-60 one-dose screen, 48 h (100 = growth as untreated, 0 = no growth, -100 = all killed)
- Run Conditions: 10 µM unless noted
About 83,000 compounds went through this panel and 20% of them were active in at least one assay; those are over-represented in the sample as a whole.
Property Name: growth (%)
Give bare numbers, in %.

Your task in this section: give growth for each listed record.
1. Nc1nc(Nc2cccc(F)c2)nc2ccccc12
2. COC(=O)/C(=C\c1c(-c2ccccc2)[nH]c2ccccc12)S(C)(=O)=O
3. CCc1ccc(CNCC(O)c2ccccc2)cc1 (stereo not given)
4. CCN1C(=O)N(c2ccccc2)C2Nn3c(s/c(=C4\C(=O)N(C(C)C)c5ccccc54)c3=O)=NC21 (stereo not given)

[50.6, 39.1, 90.9, 102]

Your task in this section: give growth for each listed record.
1. CC(C)[C@H](NC(=O)Cn1cc(C(=O)O)nn1)C(=O)O
2. COc1ccc(Cn2c(Br)c3c(c2-c2cc(OC)c(OC)c(OC)c2)CCc2sc(NC(=O)c4ccc(OC)cc4)nc2-3)cc1
3. O=C(NC1C(O)OC(CO)C(O)C1O)NS(=O)(=O)c1ccc(Cl)cc1 (stereo not given)
4. O=C(CCc1nnc2sc(COc3ccccc3)nn12)c1nc2ncccc2[nH]1

127
96.7
101
102

Your task in this section: give growth for each listed record.
1. O=C1N=c2ccccc2=C1c1sc(=Nc2ccccc2)n(Nc2ccccc2)c1O
2. O=C(Nc1ccc(N2CCNCC2)cc1)c1[nH]ncc1Nc1cc(Oc2ccccc2)ncn1

1. 103
2. 72.3
